Tested System: c-KIT (Homo sapiens, UniProt P10721)
Sequence (P10721 26-976): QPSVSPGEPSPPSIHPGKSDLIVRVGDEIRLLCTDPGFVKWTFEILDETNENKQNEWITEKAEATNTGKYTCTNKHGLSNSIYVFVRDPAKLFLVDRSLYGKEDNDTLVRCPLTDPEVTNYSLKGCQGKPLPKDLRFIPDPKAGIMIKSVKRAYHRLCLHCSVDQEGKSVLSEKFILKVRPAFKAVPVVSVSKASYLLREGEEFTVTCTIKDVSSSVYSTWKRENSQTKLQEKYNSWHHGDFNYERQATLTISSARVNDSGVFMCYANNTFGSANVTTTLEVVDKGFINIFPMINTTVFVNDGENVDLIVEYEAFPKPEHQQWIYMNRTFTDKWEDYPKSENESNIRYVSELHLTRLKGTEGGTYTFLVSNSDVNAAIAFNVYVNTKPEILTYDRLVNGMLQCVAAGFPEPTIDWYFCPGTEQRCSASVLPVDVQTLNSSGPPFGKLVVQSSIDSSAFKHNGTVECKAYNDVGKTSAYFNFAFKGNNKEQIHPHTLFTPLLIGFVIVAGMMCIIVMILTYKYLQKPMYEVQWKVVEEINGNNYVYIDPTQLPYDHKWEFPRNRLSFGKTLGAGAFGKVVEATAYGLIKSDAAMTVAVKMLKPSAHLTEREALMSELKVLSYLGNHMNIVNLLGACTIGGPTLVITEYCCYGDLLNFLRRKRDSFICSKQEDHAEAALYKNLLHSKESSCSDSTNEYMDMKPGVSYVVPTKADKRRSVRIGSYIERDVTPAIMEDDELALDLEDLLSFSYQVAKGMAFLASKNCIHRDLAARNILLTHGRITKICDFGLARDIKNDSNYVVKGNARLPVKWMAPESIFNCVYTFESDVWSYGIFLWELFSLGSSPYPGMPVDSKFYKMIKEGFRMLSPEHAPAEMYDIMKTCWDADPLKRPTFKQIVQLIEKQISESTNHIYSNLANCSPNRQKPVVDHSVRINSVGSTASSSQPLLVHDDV
Protocol Text: c-KIT recombinant enzyme kinase assay (AlphaScreen)
Conditions Used: 100 ATP, 8 pt
Procedure: In order to determine the effect of compounds on FLT3 catalytic activity, kinase assays using recombinant enzymes and AlphaScreen® technology have been established. The catalytic activity of c-kit activity was also measured to determine selectivity of the compounds. […] Using AlphaScreen® technology, the ability of the compounds to affect the catalytic activity of the kinases can be measured quantitatively. […] Read plate on Wallac EnVision™ 2103 Multilabel Reader.
Recorded IC50 values for a group of compounds are listed next.

Guide cases for IC50, answers given:
q: Fill in the blank: the reported IC50 of COc1ncc(NC(=O)Cc2ccc(-c3cnc(Nc4cnn(C(F)F)c4)nc3)cc2)cc1C(F)(F)F is ____.
a: 0.0001 to 10 µM

q: // returns reported IC50 for input COc1n[nH]c2ncc(-c3ccc(CC(=O)Nc4cnc(C)c(C(F)(F)F)c4)cc3)cc12
a: 0.0001 to 10 µM

q: # IC50 lookup, item O=C(Cc1ccc(-c2cnc3[nH]c(-c4ccnc(N5CCOCC5)c4)cc3c2)c(F)c1)Nc1cncc(C(F)(F)F)c1
a: 0.0001 to 10 µM

Next:
q: What IC50 value was documented for this compound, CCC(=O)c1c[nH]c2ncc(-c3ccc(CC(=O)Nc4cncc(C(F)(F)F)c4)c(F)c3)cc12 ?
a: 0.0001 to 10 µM

q: Give the measured IC50 of Cn1cc(Nc2ncc(-c3cc(F)c(CC(=O)Nc4cncc(C(F)(F)F)c4)cc3F)cn2)cn1 .
a: 0.0001 to 10 µM

q: If you can, please state the reported IC50 value of O=C(Cc1ccc(-c2cnc3[nH]cc(F)c3c2)cc1F)Nc1cc(Cl)c(C2CC2)cn1 .
a: 0.0001 to 10 µM

----------
Tested System: BA/F3-FLT3-ITD + D835Y (Homo sapiens, UniProt P36888, D835Y, cells depend on it, form not given)
Protocol Text: Engineered BA/F3 cell growth assay, FLT3 ITD/D835Y
Format: cell-based, murine
Conditions Used: 3 d growth
Readout Type: GI50

q: # get_value(readout='GI50', item= COc1ncc(NC(=O)Cc2ccc(-c3cnc4[nH]c(C#CC(C)(C)C)cc4c3)cc2)cc1C(F)(F)F )
a: 0.0001 to 10 µM

----------
Tested System: BaF3-FLT3-ITD-F691L (Homo sapiens, UniProt P36888, F691L, cells depend on it, form not given)
Protocol Text: Cell Assay CS0047: BaF3-FLT3-ITD-F691L CTB
Assay type: cell-based, murine
Conditions Used: three day growth assay in the absence of IL3; read-out: Cell Assay: CS0047: BaF3-FLT3-ITD-F691L CTB:IC50
Attribute: GI50
The response must be a number in µM with no trailing unit.

Here's what some known entries look like.
q: Which value of GI50 has been reported for CC(C)(C)c1cc(NC(=O)Nc2ccc(-c3cnc(NC4CCOCC4)nc3)cn2)no1 in the records?
a: 0.11

q: Which measured GI50 value corresponds to CC(C)(C)c1cc(NC(=O)Nc2ccc(-c3cnc(NC4CC4)nc3)cn2)no1 ?
a: 0.0778

q: Tell me the measured GI50 of CCNc1ccc(-c2ccc(CC(=O)Nc3cc(C(C)(C)C)on3)cc2)cn1 , please.
a: 0.0454

q: Tell me the measured GI50 of CC(C)(c1cc(NC(=O)Cc2ccc(-c3ccc(NCCN4CCOCC4)nc3)cc2)no1)C(F)(F)F , please.
a: 0.0739

Now consider the entry below.
q: Return reported GI50; argument: CNc1ccc(-c2ccc(CC(=O)Nc3cc(C(C)(C)C)on3)cc2)cn1
a: 0.0432

----------
Below, each of the compounds is paired with its reported IC50 value.
Test system: MOLM-14 F691L (endogenous FLT3 ITD and transfected FLT3 F691L)
Protocol Text: MOLM-14 F691L cell proliferation assay (CellTiter-Glo)
Assay type: cell-based
Conditions Used: Homo sapiens, MOLM-14, 72 h; 3 d growth, GMean

Use these answered entries as a reference point.
q: Which IC50 value belongs to Cc1ncc(NC(=O)Cc2ccc(-c3cnc(Nc4cnn(C)c4)nc3)cc2)cc1C(F)(F)F [Compound P-0140] ?
a: 0.0001 to 10 µM

q: Sample CCn1cc(Nc2ncc(-c3ccc(CC(=O)Nc4cnc(Cl)c(C(F)(F)F)c4)c(F)c3)cn2)cn1 [Compound P-0260] — what was its IC50?
a: 0.0001 to 10 µM

q: Please look up its IC50: COc1ccc(-c2cc3cc(-c4ccc(CC(=O)Nc5cncc(C(F)(F)F)c5)cc4F)cnc3[nH]2)cn1 [Compound P-0196]
a: 0.0001 to 10 µM

API: the following record is the query input.
q: Look up IC50 for this compound: O=C(Cc1ccc(-c2cnc3[nH]c(-c4ccnc(N5CCOCC5)c4)cc3c2)cn1)Nc1ccnc(C(F)(F)F)c1 [Compound P-0181]
a: 0.0001 to 10 µM

----------
Test system: MOLM-14 F691L (endogenous FLT3 ITD and transfected FLT3 F691L)
Protocol Text: MOLM-14 F691L cell proliferation assay (CellTiter-Glo)
Type: cell-based
Conditions Used: Homo sapiens, MOLM-14, 72 h; 3 d growth, GMean
Readout Type: IC50

Some solved entries appear below for comparison.
q: Look up IC50: Cc1nn(C)cc1Nc1ncc(-c2ccc(CC(=O)Nc3cnc(C)c(C(F)(F)F)c3)cc2)cn1
a: 0.0001 to 10 µM

q: Quick check: IC50 of Cn1cnc(Nc2ncc(-c3ccc(CC(=O)Nc4cnc(Cl)c(C(F)(F)F)c4)cc3)cn2)c1 ?
a: 0.0001 to 10 µM

q: Name the reported IC50 value associated with the molecule Cn1cc(Nc2ncc(-c3ccc(CC(=O)NCc4ccc(C(F)(F)F)cn4)cc3)cn2)cn1
a: 0.0001 to 10 µM

// moving on: another record for IC50
q: Any idea what its IC50 is? The molecule is COc1n[nH]c2ncc(-c3ccc(CC(=O)Nc4cnc(C)c(C(F)(F)F)c4)cc3)cc12
a: 0.0001 to 10 µM

----------
Entries and their pIC50
Tested System: FLT3-D835Y (Homo sapiens, UniProt P36888, D835Y)
Protocol Text: FLT3-D835Y recombinant enzyme kinase assay (AlphaScreen)
Conditions Used: 8 pt, GMean
Experimental: In order to determine the effect of compounds on FLT3 catalytic activity, kinase assays using recombinant enzymes and AlphaScreen® technology have been established. The catalytic activity of c-kit activity was also measured to determine selectivity of the compounds. […] Using AlphaScreen® technology, the ability of the compounds to affect the catalytic activity of the kinases can be measured quantitatively. […] Read plate on Wallac EnVision™ 2103 Multilabel Reader.
pIC50: −log10 of the molar value.

The following compounds have reported results that may help.
q: Would you mind telling me what pIC50 value was observed for Cn1cnc(Nc2ncc(-c3ccc(CC(=O)Nc4cncc(C(C)(F)F)c4)c(F)c3)cn2)c1 ?
a: 5.00 to 10.00

q: Tell me the measured pIC50 of Cn1cnc(Nc2ncc(-c3ccc(CC(=O)Nc4cnc(Cl)c(C(F)(F)F)c4)c(F)c3)cn2)c1 , please.
a: 5.00 to 10.00

As a next step, examine the compound that follows.
q: Return reported pIC50; argument: Cn1cnc(Nc2ncc(-c3cc(F)c(CC(=O)Nc4cncc(C(F)(F)F)c4)cc3F)cn2)c1
a: 5.00 to 10.00

----------
Tested System: FLT3-D835Y (Homo sapiens, UniProt P36888, D835Y)
Protocol Text: FLT3-D835Y recombinant enzyme kinase assay (AlphaScreen)
Conditions Used: 8 pt, GMean
IC50: recorded values

q: # lookup: IC50 of COc1ncc(NC(=O)Cc2ccc(-c3cnc4[nH]cc(F)c4c3)cc2F)cc1C(F)(F)F [Compound P-0034]
a: 0.0001 to 10 µM

q: Returns the measured IC50 for the input compound. Input: COCCn1cc(Nc2ncc(-c3ccc(CC(=O)Nc4cncc(C(F)(F)F)c4)cc3)cn2)cn1 [Compound P-0178]
a: 0.0001 to 10 µM

q: Reported IC50, compound Cc1ncc(NC(=O)Cc2ccc(-c3cnc4[nH]nc(C5CC5)c4c3)cc2F)cc1C(F)(F)F [Compound P-0066] : ____
a: 0.0001 to 10 µM

q: Suppose we examine the compound Cn1cnc(Nc2ncc(-c3ccc(CC(=O)Nc4cc(C(F)(F)F)ccn4)c(F)c3)cn2)c1 [Compound P-0096] ; what IC50 value has been reported?
a: 0.0001 to 10 µM

----------
Listing of entries alongside the reported IC50.
Tested System: c-KIT (Homo sapiens, UniProt P10721)
Construct: purchased Millipore 14-559K
Protocol Text: c-KIT recombinant enzyme kinase assay (AlphaScreen)
Assay type: biochemical
Conditions Used: 100 ATP, 8 pt

q: Sample Cn1cc(Nc2ncc(-c3ccc(CC(=O)Nc4cnc(Cl)c(C(F)(F)F)c4)cc3)cn2)cn1 — what was its IC50?
a: 0.0001 to 10 µM

***
q: Given the compound Cc1nn(C)cc1Nc1ncc(-c2ccc(CC(=O)Nc3cnc(C)c(C(F)(F)F)c3)cc2)cn1 , what is its reported IC50?
a: 0.0001 to 10 µM

q: Tell me the measured IC50 of Cn1cc(Nc2ncc(-c3ccc(CC(=O)Nc4cc(C(F)(F)F)ccn4)cc3)cn2)cn1 , please.
a: 0.0001 to 10 µM
